System: SNB-75
readout.name: GI50 (nM)
Lab book: enter the figure in nM, no units written.

See these solved cases before continuing.
{"compound": "COc1cc(/C=C/C(=O)c2sc(=S)[nH]c2C)cc(OC)c1OC", "GI50 (nM)": 2190}
{"compound": "Cc1[nH]c(=S)sc1C(=O)/C=C/c1cccc([N+](=O)[O-])c1", "GI50 (nM)": 2290}
{"compound": "Cc1[nH]c(=S)sc1C(=O)/C=C/c1cccc(Cl)c1", "GI50 (nM)": 1660}
{"compound": "COc1ccc(/C=C\\c2cc(OC)c(OC)c(OC)c2)cc1O [CA-4, Combretastatin-A4, reference compound]", "GI50 (nM)": 830}

Proceed to the following item.
Short answer on SNB-75 for `Cc1[nH]c(=S)sc1C(=O)/C=C/c1ccc(Cl)cc1` , GI50: 2190
